test system: Escherichia coli TOP10; assay: shrunken log2 fold change of peptide-encoding DNA abundance (4.5 h post-induction vs induction); higher = less antimicrobial activity (less host growth inhibition); conditions: time post-induction: 4.5 h; library: site-saturation at positions 5, 18, 19, 20
assayEndpoint: shrunken log2 fold change
Form rule: numeric answer, no unit written next to it.

RRIRPRPPRLPRPRPRPNFCPRP
0.257
RRIRTRPPRLPRPRPRPWAAPRP
-0.0363
RRIRSRPPRLPRPRPRPDCFPRP
0.103
RRIRFRPPRLPRPRPRPQVKPRP
-0.279
RRIRFRPPRLPRPRPRPEELPRP
0.0201

Return shrunken log2 fold change (reported value) for this sequence: RRIRCRPPRLPRPRPRPNRVPRP
-0.206

State its shrunken log2 fold change: RRIRERPPRLPRPRPRPQNPPRP
-0.213

# return recorded shrunken log2 fold change for entry RRIRWRPPRLPRPRPRPPVGPRP
0.167

Input RRIRLRPPRLPRPRPRPHKGPRP , output reported shrunken log2 fold change.
-0.0262

Output shrunken log2 fold change of RRIRKRPPRLPRPRPRPNANPRP
0.135

Supply reported shrunken log2 fold change belonging to this sequence: RRIRWRPPRLPRPRPRPIKMPRP
0.212

Look up shrunken log2 fold change of RRIRTRPPRLPRPRPRPSFGPRP and report it.
0.129

Read off the recorded shrunken log2 fold change for RRIRGRPPRLPRPRPRPVIEPRP
0.599

Tell us which shrunken log2 fold change value is on record for RRIRFRPPRLPRPRPRPDNPPRP
-0.0747

Quickly give me recorded shrunken log2 fold change for RRIRMRPPRLPRPRPRPVCPPRP
0.0129

---

tested on: Escherichia coli TOP10; assay: shrunken log2 fold change of peptide-encoding DNA abundance (4.5 h post-induction vs induction); higher = less antimicrobial activity (less host growth inhibition); details: time post-induction: 4.5 h; library: site-saturation at positions 5, 18, 19, 20
Given measured shrunken log2 fold change, output Met if it is greater than or equal to 0.04 and Not met if not.

Example cases with answers are listed next.
RRIRMRPPRLPRPRPRPHYIPRP
Not met
RRIRARPPRLPRPRPRPGFFPRP
Met
RRIRFRPPRLPRPRPRPRTLPRP
Met
RRIRPRPPRLPRPRPRPYKEPRP
Not met
RRIRPRPPRLPRPRPRPVLHPRP
Not met
RRIRWRPPRLPRPRPRPQEMPRP
Not met
RRIRDRPPRLPRPRPRPVMEPRP
Met
RRIRWRPPRLPRPRPRPWLPPRP
Not met

Say whether RRIRPRPPRLPRPRPRPEQMPRP shows shrunken log2 fold change of 0.04 or more.
Met

Could you tell me if the measured shrunken log2 fold change of RRIRWRPPRLPRPRPRPSMRPRP reaches 0.04 or more?
Met

# check: shrunken log2 fold change of RRIRLRPPRLPRPRPRPIGNPRP is greater than or equal to 0.04
Met

---

test system: Escherichia coli TOP10; experiment: shrunken log2 fold change of peptide-encoding DNA abundance (4.5 h post-induction vs induction); higher = less antimicrobial activity (less host growth inhibition); details: time post-induction: 4.5 h; library: site-saturation at positions 5, 18, 19, 20
assayEndpoint: shrunken log2 fold change
Give a plain numeric answer without units written out.

RRIRQRPPRLPRPRPRPNFDPRP
-0.347

Consider the record given below.
Indicate its recorded shrunken log2 fold change; the sequence in question is RRIRRRPPRLPRPRPRPTETPRP
0.137

---

system: Escherichia coli TOP10; assay: shrunken log2 fold change of peptide-encoding DNA abundance (4.5 h post-induction vs induction); higher = less antimicrobial activity (less host growth inhibition); settings: time post-induction: 4.5 h; library: site-saturation at positions 5, 18, 19, 20
assayEndpoint: shrunken log2 fold change

Field: example entries. Status: answers known.
RRIRGRPPRLPRPRPRPIQCPRP
0.0816
RRIRCRPPRLPRPRPRPKISPRP
-0.712
RRIRQRPPRLPRPRPRPLGVPRP
0.0233
RRIRWRPPRLPRPRPRPLIGPRP
0.0414
RRIRVRPPRLPRPRPRPDDNPRP
-0.0966
RRIRFRPPRLPRPRPRPLPPPRP
0.828
RRIRWRPPRLPRPRPRPENQPRP
0.353
RRIRWRPPRLPRPRPRPTRNPRP
-0.0437
RRIRTRPPRLPRPRPRPECHPRP
-0.247
RRIRFRPPRLPRPRPRPGGNPRP
0.149

Please look at RRIRWRPPRLPRPRPRPDMLPRP and tell me its recorded shrunken log2 fold change on Escherichia coli TOP10.
0.142

Recall the reported shrunken log2 fold change of RRIRPRPPRLPRPRPRPHGVPRP on Escherichia coli TOP10 and write it down.
-0.104

Fetch value of shrunken log2 fold change on Escherichia coli TOP10 for RRIRGRPPRLPRPRPRPIRFPRP .
0.0151

Report value: shrunken log2 fold change, system: Escherichia coli TOP10, sequence: RRIRCRPPRLPRPRPRPSDEPRP
-0.126

For Escherichia coli TOP10, give the measured shrunken log2 fold change of the entry RRIRKRPPRLPRPRPRPPTGPRP
0.265

---

test system: Escherichia coli TOP10; experiment: shrunken log2 fold change of peptide-encoding DNA abundance (4.5 h post-induction vs induction); higher = less antimicrobial activity (less host growth inhibition); conditions: time post-induction: 4.5 h; library: site-saturation at positions 5, 18, 19, 20
assayEndpoint: shrunken log2 fold change

Fetch value of shrunken log2 fold change on Escherichia coli TOP10 for RRIRCRPPRLPRPRPRPYQSPRP .
-0.307

Quote Escherichia coli TOP10 shrunken log2 fold change for entry RRIRDRPPRLPRPRPRPEVLPRP .
1.14

GET shrunken log2 fold change | system: Escherichia coli TOP10 | item: RRIRGRPPRLPRPRPRPDWIPRP
0.243

Look up Escherichia coli TOP10 data: shrunken log2 fold change of RRIRQRPPRLPRPRPRPQNNPRP , then report it.
-0.54

# return shrunken log2 fold change for RRIRCRPPRLPRPRPRPVPHPRP , test system: Escherichia coli TOP10
0.0468

Report its shrunken log2 fold change with Escherichia coli TOP10 as the test system: RRIRTRPPRLPRPRPRPEMTPRP
0.0523

Answer briefly: shrunken log2 fold change recorded on Escherichia coli TOP10 for RRIRKRPPRLPRPRPRPYWWPRP
-0.454

For Escherichia coli TOP10, give the measured shrunken log2 fold change of the entry RRIRFRPPRLPRPRPRPFACPRP
-0.189

Report the value of shrunken log2 fold change obtained on Escherichia coli TOP10 for RRIRHRPPRLPRPRPRPYWTPRP .
0.0019

State shrunken log2 fold change on Escherichia coli TOP10. Entry: RRIRPRPPRLPRPRPRPCWGPRP
-0.0769

Report value only: shrunken log2 fold change, Escherichia coli TOP10, RRIRRRPPRLPRPRPRPVFLPRP
0.0173

Enter measured shrunken log2 fold change, system Escherichia coli TOP10, for the sequence shown: RRIRWRPPRLPRPRPRPDLVPRP
0.0575

// fetch shrunken log2 fold change; item: RRIRSRPPRLPRPRPRPGHWPRP ; system: Escherichia coli TOP10
0.286

Report value only: shrunken log2 fold change, Escherichia coli TOP10, RRIRNRPPRLPRPRPRPMYWPRP
-0.000123

Look up and report measured shrunken log2 fold change (Escherichia coli TOP10) for the following sequence: RRIRRRPPRLPRPRPRPFHGPRP
-0.17

// output shrunken log2 fold change; input RRIRSRPPRLPRPRPRPWSFPRP ; system Escherichia coli TOP10
0.0324

State recorded shrunken log2 fold change with Escherichia coli TOP10, entry RRIRQRPPRLPRPRPRPGDGPRP , no comment.
0.415

Report the value of shrunken log2 fold change obtained on Escherichia coli TOP10 for RRIRNRPPRLPRPRPRPAFTPRP .
-0.176

Give Escherichia coli TOP10 shrunken log2 fold change for the following sequence: RRIRNRPPRLPRPRPRPGPCPRP
-0.0814

---

This listing pairs sequences with measured shrunken log2 fold change.
test system: Escherichia coli TOP10; assay: shrunken log2 fold change of peptide-encoding DNA abundance (4.5 h post-induction vs induction); higher = less antimicrobial activity (less host growth inhibition); conditions: time post-induction: 4.5 h; library: site-saturation at positions 5, 18, 19, 20;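 further: peptides expressed intracellularly from a pBAD plasmid library in pooled LB shake-flask culture, induced with 0.3% L-arabinose, DNA abundance read by NGS, three biological replicates, DESeq2 with apeglm shrinkage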

Consider the worked cases shown below.
RRIRCRPPRLPRPRPRPWWWPRP
-0.1
RRIRPRPPRLPRPRPRPKYGPRP
-0.491
RRIRPRPPRLPRPRPRPKSHPRP
-0.246
RRIRRRPPRLPRPRPRPVQFPRP
0.0855

Complete the entry with shrunken log2 fold change for RRIRYRPPRLPRPRPRPGGMPRP
-0.297

Recall and state the measured shrunken log2 fold change for RRIRGRPPRLPRPRPRPWINPRP .
-0.137

Indicate the recorded shrunken log2 fold change value for this sequence: RRIRGRPPRLPRPRPRPFESPRP
0.0306

Note shrunken log2 fold change for the sequence shown: RRIRERPPRLPRPRPRPFSRPRP
-0.0038

Specify shrunken log2 fold change for RRIRYRPPRLPRPRPRPFKVPRP and stop.
-0.123

Identify measured shrunken log2 fold change corresponding to RRIRFRPPRLPRPRPRPRSCPRP
0.155

For RRIRKRPPRLPRPRPRPYPGPRP , write its shrunken log2 fold change.
-0.142

Identify shrunken log2 fold change associated with the sequence RRIRPRPPRLPRPRPRPCAPPRP
0.159

Read off the recorded shrunken log2 fold change for RRIRKRPPRLPRPRPRPPVGPRP
1.04

Supply reported shrunken log2 fold change belonging to this sequence: RRIRRRPPRLPRPRPRPDKDPRP
0.00839

Provide only the value of recorded shrunken log2 fold change for RRIRKRPPRLPRPRPRPSKTPRP
0.0486
